All values here come from patent US20090053750A1.

# fluorescence index per record follows
target: T1, class I MHC receptor HLA-A2 on T2 cells (human); test: T2 cells, anti-HLA-A2 flow cytometry after brefeldin A; Average; 18 hr
T1 construct: detected on the cell surface with a mouse anti-human HLA-A2 monoclonal antibody and goat anti-mouse IgG F(ab')2-FITC; also called HLA-A2 receptor; HLA-A2 class I MHC
Just the number please, in F.I., no unit attached.

GQGDVMVFV [Filamin B peptide #6]	1.05
GLAPLEVRV [Filamin B peptide #3]	2.6
LILGLVWTL [Filamin B peptide #1]	1.9

Lab note: KLILGLVWT [Filamin B peptide #7] gave fluorescence index of 1.13

Lab note: SLQESGLKV [Filamin B peptide #4] gave fluorescence index of 1.05
